# Tested on: SK-OV-3 ovarian
# MEASUREMENT DESCRIPTION: NCI tumour cell line growth inhibition, 48 h
Answer each item with its documented TGI.

Entry `Cc1ccc(/C=C(\C#N)c2ccccc2)cc1` , system SK-OV-3 ovarian: what TGI was measured?
> 100 µM

Record: `CC(=O)O[C@@H]1O[Si](C(C)(C)C)(C(C)(C)C)[C@H](C)[C@H]1C`
> 100 µM

Check `CCOC(=O)NC(=S)c1ccc(O)c2ccccc12` too.
> 100 µM

Here is the next compound: CSc1ccc(C2=NN(C(C)=O)C(c3ccc(F)cc3)C2)cc1 (stereo unspecified)
67.7 µM

Now the same for `COc1ccc(Nc2nc3ccccc3nc2C(=O)O)cc1OC`
> 100 µM

What about this compound? `NC(=Nc1nc(-c2ccccn2)cc2ccccc12)c1ccccn1`
> 19.4 µM

What would you report for `Cn1c(=O)oc2cc(Br)ccc21` ?
> 100 µM

Next compound: `COc1ccc2c(CCNS(=O)(=O)c3ccccc3)c(C(C)=O)[nH]c2c1`
> 100 µM

Next compound: CC(=O)NC(CCCCN(Cc1ccccc1)C(=O)N(CCCl)N=O)C(=O)NCc1ccccc1 (stereo unspecified)
> 76.3 µM

For N#Cc1c(-c2ccccc2)c(C#N)c(=O)n(C2OC(CO)C(O)C(O)C2O)c1S (stereo unspecified) then?
> 100 µM

Next up: O=C1C(Cl)C(c2cc3cc(Br)ccc3nc2Cl)N1c1c(Cl)cccc1Cl (stereo unspecified)
> 25 µM

###

# System: HOP-62 NSCLC
# MEASUREMENT DESCRIPTION: NCI tumour cell line growth inhibition, 48 h; in the data active = GI50 below about 0.43 µM; inactive = the rest
Where a SMILES comes first, the peptide text is derived from it. [ ]: non-standard residue; d: D form. 2Nal = N[CH](Cc1ccc2ccccc2c1)C(=O)O
Respond only with the outcome that fits, drawn from active, inactive

Hi, do you know how `CCCN1C(=O)/C(=C/c2ccc(O)cc2)SC1=Nc1ccc(OC)cc1` came out in this test?
inactive

Continue with COc1ccc(/C=C2\CC(C)CC3C2=NN(c2ccccc2)C3c2ccc(OC)c(OC)c2)cc1OC (stereo not drawn)
inactive

Then `O=C(Nc1cccc(Cl)c1)c1cc(N=Nc2ccc([N+](=O)[O-])cc2Cl)ccc1O` ?
inactive

Entry to check: `COc1ccc2c(c1)C(=O)c1c-2n(CCCN)c(=O)c2cc(OC)c(OC)cc12`
active

Another: `O=C(Cn1c(C(=O)c2ccccc2)nc2ccccc21)c1ccc(F)cc1`
inactive

Same lookup for `O=S(=O)(Nc1ccc2ccccc2c1)c1ccc(-c2cnc(C3CC3)o2)cc1` , please.
inactive

Check `COc1cc(/C=C\c2cc(/C=C\c3ccc(O)c(OC)c3)n(C(=O)CNc3ccc(Cl)cc3)n2)ccc1O` too.
inactive

And for CC(C)C(NC(=O)C(CCCCN)NC(=O)C(Cc1c[nH]c2ccccc12)NC(=O)C(Cc1ccc(O)cc1)NC(=O)C(CS)NC(=O)C(N)Cc1ccc2ccccc2c1)C(=O)NC(CS)C(=O)NC(C(N)=O)C(C)O (stereo not drawn) (H-[2Nal]CYWKVCT-NH2; configuration not given here) ?
inactive

###

# Test system: HCC-2998 colon
# MEASUREMENT DESCRIPTION: NCI tumour cell line growth inhibition, 48 h
READOUT KIND: TGI

What value of measured TGI is listed for COC(=O)C1C(C(=O)OC)C1(Br)CBr (configuration not stated) ?
> 100 µM

Same for CC(O)CN1c2ccccc2Sc2ccc(Cl)cc21 (configuration not stated)
> 10 µM

Continue with `O=[As](O)(O)c1ccc2nc3cc([As](=O)(O)O)ccc3nc2c1`
> 100 µM

Check `O=C(CCOS(=O)(=O)CF)N1CCN(C(=O)CCOS(=O)(=O)CF)CC1` too.
> 100 µM

Subsequent entry: Cc1c(C2Cc3ccccc3N2)c2ccccc2n1C (configuration not stated)
> 100 µM

Then what about the molecule `CCN(CC)C(=S)SS(=O)(=O)c1ccccc1[N+](=O)[O-]` ?
> 100 µM

Likewise for COc1cc(C23OCC(Cc4cc5c(cc42)OCO5)C3CO)cc(OC)c1OC (configuration not stated) ?
6.89 µM

Same for `CC(=O)Oc1c2oc3cc(O)c(O)cc3c2c(OC(C)=O)c2oc3cc(O)c(O)cc3c12`
40.7 µM

Field entry: NNC(=O)N/N=C1\C(=O)N(c2nccs2)C(=O)C(=O)C1c1nc2ccccc2s1 (configuration not stated)
> 100 µM

Please answer likewise for CC(O[Si](c1ccccc1)(c1ccccc1)C(C)(C)C)[C@H](NC(=O)OC(C)(C)C)C(=O)O (some centres not stated)
> 100 µM

What would you report for C=C1NC(=O)C(CC(C(=O)C(=O)Nc2c(C)cccc2C(C)(C)C)C(=O)c2ccc3ccccc3c2)C(=O)N1 (configuration not stated) ?
> 100 µM

Continue with `CC(=O)Oc1c(C)c2c(c3ccccc13)OC(C)(C)C2`
32.7 µM

Another: `COc1cc(/C=C\c2ccc(OC(C)=O)cc2)cc(OC)c1OC`
> 100 µM

Follow-up item: `COc1ccc(CNC(=O)[C@H](Cc2ccc(O)cn2)NC(C)=O)cc1`
> 100 µM

Could you do the same for O=C(O)CC1CC=C[C@H]2c3cc4c(cc3C(=O)NC12)OCO4 (some centres not stated) , please?
> 75 µM

# iterate: `N#CCCN(CCC#N)c1ccc(C(N=Nc2ccc(Cl)cc2)=Nc2ccc(F)cc2)cc1`
> 100 µM

And `O=c1[nH]c(=O)n(C/C=C/CBr)nc1Br` ?
28.3 µM

Can you handle `COc1ccc(CNc2cnc3cc(N)cc(N)c3n2)cc1` next?
28 µM

Another molecule to check: `N#Cc1c(N)nc(N2CCSCC2)c(C#N)c1-c1ccc(O)cc1`
36.6 µM

How about this molecule: `COc1cc2ncn(-c3cc(OCc4ccccc4C(F)(F)F)c(C(C)=O)s3)c2cc1OC`
> 25 µM

Entry `CCOC(=O)c1cc(-c2ccc(OC)c(OC)c2)[nH]c1N/N=C/c1c(Cl)cccc1Cl` please
4.38 µM

Continue with `O=C(Cn1c(C(=O)c2ccccc2)nc2ccccc21)c1ccc(F)cc1`
> 100 µM

###

# Tested on: SK-MEL-28 melanoma
# MEASUREMENT DESCRIPTION: NCI tumour cell line growth inhibition, 48 h
READOUT KIND: TGI

Recorded TGI of COc1cc(C23OCC(Cc4cc5c(cc42)OCO5)C3CO)cc(OC)c1OC (stereo unspecified) , please.
> 100 µM

Now give it for `CC(=O)[O-].[O-]c1c(Cl)cc(Cl)cc1/C=N/Nc1ccccn1.[Zn+2]` too.
> 100 µM

Entry CC1=NN(C(=O)c2ccncc2)C(=O)C1N=Nc1ccc2ccccc2c1 (stereo unspecified) please
> 100 µM

Same again, this time with `CC(=O)Nc1ccc2cc3[nH]c4cc(NC(C)=O)ccc4c3nc2c1`
> 100 µM

Next compound: `CO[C@@H]1[C@H]2[C@@H](C)c3ccoc3C[C@@H]2[C@@]2(C)CC[C@H](OC(=O)c3ccccc3)[C@](C)(C(=O)O)[C@]2(O)[C@@H]1OC(=O)c1ccccc1`
> 50 µM

Same read-out for C#CCN(N=O)C(=O)NCCCC(NC(C)=O)C(=O)NCc1ccccc1 (stereo unspecified) ?
> 100 µM

Further, for COc1cc2c(c(OC(C)=O)c1OC(C)=O)-c1ccc(SC)c(=O)cc1C(NC(C)=O)CC2 (stereo unspecified) ?
> 100 µM

Now the same for `CC(C)CN(CC#N)CC(C)C`
> 100 µM

Query `O=C(Nc1nc(C23CC4CC(CC(C4)C2)C3)cs1)c1cc2c(ccc3ccccc32)oc1=O` next
> 100 µM

What about `Nc1nc(N)c(N=Nc2ccc(C(=O)O)c(O)c2)c(N)n1` ?
> 100 µM

Try this compound too: COc1ccc2c(c1)N(CCO)C1=C(C(=O)OC1)C2c1ccccc1 (stereo unspecified)
> 50 µM

Queued: `CCOC(=O)NC(=S)c1ccc(O)c2ccccc12`
> 100 µM

Lookup `Cn1c2c3c(F)c(F)ccc3nc-2cc2ccccc21`
18.3 µM

Next entry: `Cc1ccc(/C=C(\C#N)c2ccccc2)cc1`
> 100 µM

Continue with `NC(N)=NS(=O)(=O)c1ccc(NC(=O)c2ccc3[nH]c4ccccc4c(=O)c3c2)cc1`
> 100 µM

Same for `O=C(NNC(=S)NCc1ccccc1)C12CC3CC(CC(C3)C1)C2`
> 100 µM

What do you get for `COc1ccccc1NC(=S)Nc1cc(C)ccn1` ?
> 100 µM

Query CN(C)c1ccc(C2ON=C(c3ccccc3)N2C23CC4CC(CC(C4)C2)C3)cc1 (stereo unspecified) next
> 10 µM

Moving on to `CCOC(=O)N1[C@@H]2CCC[C@@H]2C(=O)[C@@H]2CCC[C@@H]21`
> 100 µM

// repeat for `Cc1cc(NNC(=O)c2ccccc2O)nc(Nc2nc3ccccc3o2)n1` and report
13.3 µM

Proceed to `Cc1cn2c(/C=C3/C(=O)Nc4ccc(F)cc43)c(C)nc2s1`
> 50 µM

Attribution: PubChem BioAssay (NCI)
